B1: LINE1-mini (parent)
chain: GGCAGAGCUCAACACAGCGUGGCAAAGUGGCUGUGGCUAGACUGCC

Variants of: B1
Assay: self-cleavage, relative activity (ratio to wild type); higher = more cleavage; in vitro, sequencing; the parent is a self-cleaving ribozyme
Exercise: state measured self-cleavage for each of the variants provided.
API note: the answer field is a bare number with no unit suffix.

**Query** For G29A C42U , what is its reported self-cleavage?
**Result** 0.42

**Query** For A6G U9G , what is its reported self-cleavage?
**Result** 0.17

**Query** For G1C C8G , what is its reported self-cleavage?
**Result** 0.02

**Query** For G21C A25U , what is its reported self-cleavage?
**Result** 1.14

**Query** For G27A A39G , what is its reported self-cleavage?
**Result** 0.08

**Query** For G44U C45A , what is its reported self-cleavage?
**Result** 0.11

**Query** For C15U C42U , what is its reported self-cleavage?
**Result** 0.11

**Query** For G33C C45A , what is its reported self-cleavage?
**Result** 0.04

**Query** For G1U C42U , what is its reported self-cleavage?
**Result** 0.06

**Query** For C31G G44C , what is its reported self-cleavage?
**Result** 0.05

**Query** For C8G U9A , what is its reported self-cleavage?
**Result** 0.21

**Query** For U9A G17A , what is its reported self-cleavage?
**Result** 0.07

**Query** For A24G C46A , what is its reported self-cleavage?
**Result** 1.75

**Query** For A4U U9G , what is its reported self-cleavage?
**Result** 0.07

**Query** For C10A G44C , what is its reported self-cleavage?
**Result** 0.07

**Query** For A16C G35U , what is its reported self-cleavage?
**Result** 0.03

**Query** For A12G A16G , what is its reported self-cleavage?
**Result** 0.03

**Query** For U38G G40C , what is its reported self-cleavage?
**Result** 0.03

**Query** For U9G A16C , what is its reported self-cleavage?
**Result** 0.03

**Query** For G19U C37A , what is its reported self-cleavage?
**Result** 0.05

**Query** For U20G G40U , what is its reported self-cleavage?
**Result** 0.13

**Query** For C8U A24C , what is its reported self-cleavage?
**Result** 0.24
